Here the recorded Hela-p4 MTS 200 μM is given for each entry.
Test system: HeLa-p4 cells
Assay: Cell viability assay (MTS) on HeLa-p4 cells
Type: cell-based
Conditions: 200 μM; cell viability
Where a name gives a salt, the structure may show the parent alone.
measured-parameter: Hela-p4 MTS 200 μM

>  <compound>
COC(=O)N[C@@H]1C[C@H](NC(=O)OC)CN(CCc2cccc(OC)c2)C1 [ECO02-074-C]

>  <target-system>
HeLa-p4 cells

>  <measured-parameter>
Hela-p4 MTS 200 μM

>  <observed-value>
70

$$$$
>  <compound>
COc1cccc(CCN2C[C@H](NS(C)(=O)=O)C[C@H](NS(C)(=O)=O)C2)c1 [ECO02-073-B2]

>  <target-system>
HeLa-p4 cells

>  <measured-parameter>
Hela-p4 MTS 200 μM

>  <observed-value>
69

$$$$
>  <compound>
N[C@@H]1C[C@H](N)CN(Cc2ccccc2)C1 [ECO02-063-C, trihydrochloride]

>  <target-system>
HeLa-p4 cells

>  <measured-parameter>
Hela-p4 MTS 200 μM

>  <observed-value>
81

$$$$
>  <compound>
COc1cccc(CCN2C[C@@H](N)C[C@@H](NS(C)(=O)=O)C2)c1 (racemic) [ECO02-073-C]

>  <target-system>
HeLa-p4 cells

>  <measured-parameter>
Hela-p4 MTS 200 μM

>  <observed-value>
79

$$$$
>  <compound>
N[C@@H]1C[C@H](N)CN(S(=O)(=O)c2ccccc2)C1 [ECO03-001-B, 1-(phenylsulfonyl)piperidine-3,5-diamine]

>  <target-system>
HeLa-p4 cells

>  <measured-parameter>
Hela-p4 MTS 200 μM

>  <observed-value>
109

$$$$
>  <compound>
CC(C)(C)OC(=O)N[C@@H]1CNC[C@H](NC(=O)OC(C)(C)C)C1 [ECO02-051-C]

>  <target-system>
HeLa-p4 cells

>  <measured-parameter>
Hela-p4 MTS 200 μM

>  <observed-value>
77

$$$$
>  <compound>
N[C@@H]1C[C@H](N)CN(c2ccc(NC(=O)c3ccccc3)c(O)c2)C1 [AB-120]

>  <target-system>
HeLa-p4 cells

>  <measured-parameter>
Hela-p4 MTS 200 μM

>  <observed-value>
55

$$$$

----------
Recorded Hela-p4 MTS 100 μM, one value per entry.
System: HeLa-p4 cells
Assay: Cell viability assay (MTS) on HeLa-p4 cells
Type: cell-based
Conditions: 100 μM; cell viability
Protocol: HeLa-p4 cells are HeLa CD4 LTR-LacZ wherein LacZ expression is induced by the trans-activating protein Tat of HIV, making possible the precise quantification of HIV-1 infectivity from a single replication cycle. […] The titles for a single cycle of the viruses were determined 48 hours after infection by quantifying the beta-galactosidase activity in lysates P4 by colorimetric test (CPRG, Promega) based on the cleavage of chlorophenol red-beta-D-galactopyranoside (CPRG) by beta-galactosidase. […]
measured-parameter: Hela-p4 MTS 100 μM

>  <molecule>
N[C@@H]1C[C@H](N)CN(C2Cc3ccccc3C2)C1

>  <measured-parameter>
Hela-p4 MTS 100 μM

>  <observed-value>
84

$$$$
>  <molecule>
N[C@@H]1C[C@H](N)CN(CCc2ccccc2)C1

>  <measured-parameter>
Hela-p4 MTS 100 μM

>  <observed-value>
45

$$$$
>  <molecule>
CCc1ccc(C(=O)NC(CCCCN)C(=O)N2C[C@H](N)C[C@H](N)C2)cc1 (stereo partly drawn)

>  <measured-parameter>
Hela-p4 MTS 100 μM

>  <observed-value>
101

$$$$
>  <molecule>
N[C@@H]1C[C@H](N)CN(CCCCc2ccccc2)C1

>  <measured-parameter>
Hela-p4 MTS 100 μM

>  <observed-value>
26

$$$$
>  <molecule>
N[C@@H]1C[C@H](N)CN(Cc2ccco2)C1

>  <measured-parameter>
Hela-p4 MTS 100 μM

>  <observed-value>
88

$$$$
>  <molecule>
COc1ccc(CN2C[C@H](N)C[C@H](N)C2)cc1

>  <measured-parameter>
Hela-p4 MTS 100 μM

>  <observed-value>
94

$$$$
>  <molecule>
CN(C)c1ccc(CN2C[C@H](NC(=O)OC(C)(C)C)C[C@H](NC(=O)OC(C)(C)C)C2)cc1

>  <measured-parameter>
Hela-p4 MTS 100 μM

>  <observed-value>
84

$$$$
>  <molecule>
N[C@@H]1C[C@H](N)CN(CCCc2ccccc2)C1

>  <measured-parameter>
Hela-p4 MTS 100 μM

>  <observed-value>
88

$$$$
>  <molecule>
N[C@@H]1C[C@H](N)CN(c2ccccc2)C1

>  <measured-parameter>
Hela-p4 MTS 100 μM

>  <observed-value>
106

$$$$

----------
Tested on: HeLa-p4 cells
Experiment: Cell viability assay (MTS) on HeLa-p4 cells
Type: cell-based
Settings: 100 μM; cell viability
Hela-p4 MTS 100 μM overview
measured-parameter: Hela-p4 MTS 100 μM

>  <compound>
COc1cccc(CCN2C[C@H](N)C[C@H](N)C2)c1

>  <observed-value>
98

$$$$
>  <compound>
N[C@H]1CC(OCc2cn(CC(=O)c3cc4ccc3CCc3ccc(cc3)CC4)nn2)[C@@H](N)C1 (some centres unmarked)

>  <observed-value>
97

$$$$
>  <compound>
N[C@@H]1C[C@H](N)CN(c2ccc(C(=O)N3CCCCCC3)cc2)C1

>  <observed-value>
98

$$$$
>  <compound>
COc1cccc(CCN2C[C@@H](N)C[C@@H](NC(=O)OC(C)(C)C)C2)c1

>  <observed-value>
103

$$$$
>  <compound>
COc1ccc(CCN2C[C@H](N)C[C@H](N)C2)cc1OC

>  <observed-value>
97

$$$$

----------
Test system: wild type NL4-3 virus (HIV-1) in HeLa-p4 cells
Assay: HeLa-p4 single-cycle HIV-1 infectivity, beta-galactosidase CPRG test
Assay type: cell-based
Details: Human immunodeficiency virus 1, NL43, HeLaP4; 100 μM; 48 hours after infection; control = NL4-3 virus alone; read-out: Hela-p4 CPRG 100 μM
Protocol: HeLa-p4 cells are HeLa CD4 LTR-LacZ wherein LacZ expression is induced by the trans-activating protein Tat of HIV, making possible the precise quantification of HIV-1 infectivity from a single replication cycle. […] The titles for a single cycle of the viruses were determined 48 hours after infection by quantifying the beta-galactosidase activity in lysates P4 by colorimetric test (CPRG, Promega) based on the cleavage of chlorophenol red-beta-D-galactopyranoside (CPRG) by beta-galactosidase. […]
measured-parameter: activity at 100 µM (%)

>  <molecule>
COc1cccc(N2C[C@H](N)C[C@H](N)C2)c1 [ECO01-055-C]

>  <measured-parameter>
activity at 100 µM

>  <observed-value>
153

$$$$
>  <molecule>
COc1cccc(CCN2C[C@H](N)C[C@H](N)C2)c1 [ECO01-026-C2]

>  <measured-parameter>
activity at 100 µM

>  <observed-value>
169

$$$$
>  <molecule>
N[C@@H]1C[C@H](N)CN(CCc2ccc3c(c2)OCO3)C1 [ECO01-033-C]

>  <measured-parameter>
activity at 100 µM

>  <observed-value>
146

$$$$

----------
Tested on: HeLa-p4 cells
Assay: Cell viability assay (MTS) on HeLa-p4 cells
Assay type: cell-based
Conditions: 100 μM; cell viability
Catalogue of Hela-p4 MTS 100 μM values
measured-parameter: Hela-p4 MTS 100 μM

>  <compound>
N[C@@H]1C[C@H](N)CN(CCc2ccc(O)cc2)C1

>  <target-system>
HeLa-p4 cells

>  <measured-parameter>
Hela-p4 MTS 100 μM

>  <observed-value>
83

$$$$
>  <compound>
CC(O)c1ccc(C(=O)NC(CCCCN)C(=O)N2C[C@H](N)C[C@H](N)C2)cc1 (stereo partly drawn)

>  <target-system>
HeLa-p4 cells

>  <measured-parameter>
Hela-p4 MTS 100 μM

>  <observed-value>
100

$$$$
>  <compound>
Cc1ccc(CCN2C[C@H](N)C[C@H](N)C2)cc1

>  <target-system>
HeLa-p4 cells

>  <measured-parameter>
Hela-p4 MTS 100 μM

>  <observed-value>
89

$$$$
